Assay Target: 5-lipoxygenase (Cavia porcellus)
Construct: in A-23187-stimulated guinea pig polymorphonuclear leukocytes; endogenous in cells; host or cells: guinea pig polymorphonuclear leukocytes
Sequence (A0A286X958 1-674): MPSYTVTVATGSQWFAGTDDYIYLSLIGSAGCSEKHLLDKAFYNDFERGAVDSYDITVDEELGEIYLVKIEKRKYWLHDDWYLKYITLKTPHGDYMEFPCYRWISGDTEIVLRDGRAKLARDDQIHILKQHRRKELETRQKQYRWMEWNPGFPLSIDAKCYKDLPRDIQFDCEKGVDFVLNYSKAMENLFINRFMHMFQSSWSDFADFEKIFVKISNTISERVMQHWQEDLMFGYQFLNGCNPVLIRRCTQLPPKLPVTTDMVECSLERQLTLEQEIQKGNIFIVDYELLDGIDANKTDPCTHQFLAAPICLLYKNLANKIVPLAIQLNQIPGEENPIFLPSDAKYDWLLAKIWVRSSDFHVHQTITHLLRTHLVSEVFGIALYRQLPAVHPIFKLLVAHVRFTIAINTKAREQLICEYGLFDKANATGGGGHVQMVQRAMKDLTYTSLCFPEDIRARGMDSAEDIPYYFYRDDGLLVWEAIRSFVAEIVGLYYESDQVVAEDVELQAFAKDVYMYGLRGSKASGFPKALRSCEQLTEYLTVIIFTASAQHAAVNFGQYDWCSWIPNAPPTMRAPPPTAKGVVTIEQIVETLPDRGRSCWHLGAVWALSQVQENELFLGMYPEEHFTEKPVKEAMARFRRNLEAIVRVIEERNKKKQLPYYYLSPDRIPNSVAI
Assay Notes: Inhibition of 5-HETE and LTB4 synthesis in A-23187-stimulated guinea pig polymorphonuclear leukocytes
Assay type: cell-based
Conditions: read-out: IC50, inhibition of formation of 5-HETE
Description: […]
Readout Label: IC50

Exam item: Please give the measured IC50 for this compound: NC(=O)N(O)CC1COc2ccc(Oc3ccc(F)cc3)cc2O1 (stereo not shown)
Marked response: ~100 nM

* * *

Assay Target: 5-lipoxygenase (Cavia porcellus, UniProt A0A286X958)
Construct: in A-23187-stimulated guinea pig polymorphonuclear leukocytes; endogenous in cells; host or cells: guinea pig polymorphonuclear leukocytes
Assay Notes: Inhibition of 5-HETE and LTB4 synthesis in A-23187-stimulated guinea pig polymorphonuclear leukocytes
Type: cell-based
Conditions: read-out: IC50, inhibition of formation of leukotriene B4 (LTB4)
From the text: […]
Readout Label: IC50

Exam item: Query for 5-lipoxygenase (Cavia porcellus, UniProt A0A286X958): what IC50 does the record show for NC(=O)N(O)CC1COc2ccc(Oc3ccc(F)cc3)cc2O1 (stereo not shown) [1(c)] ?
Marked response: ~0.12 µM
